- testedSystem: HupBMtb (HU, MDP-1, HLPMt) (Mycobacterium tuberculosis H37Rv)
- measurementProtocol: EMSA
readout: pKd
Numbers only, as −log10 of the molar value.

Request - read-out pKd | tested on HupBMtb (HU, MDP-1, HLPMt) (Mycobacterium tuberculosis H37Rv) | sequence CTCTGTGACTGGTGTGACCTGGGAGAGAGAAGTTTTTTTAAGAACGTT (double strand) [A1 ds DNA (SH_1+SH_2)]
7.38
